System: 323965-272-R-J2-PDC complex spheroid growth, % test/control
EXPERIMENT: Anticancer human tumor 323965-272-R-J2-PDC patient-derived pancreatic carcinoma cell line growth inhibition [Asc]
MEASUREMENT_CONDITIONS: curve of first compound; second compound 0.0316 µM
pIC50: −log10 of the molar value.
VALUE_TYPE: pIC50

Please give the measured pIC50 for this compound: NC1CCC(NC2CC2c2ccccc2)CC1 (centres undefined) + Cc1c(S(C)(=O)=O)c(-c2cc(F)cc(N3CCN(c4ccc(NS(=O)(=O)c5ccc(NC(CCN6CCC(C(=O)OCCCP(=O)(O)O)CC6)CSc6ccccc6)c(S(=O)(=O)C(F)(F)F)c5)cc4)CC3)c2)c(-c2ccc(Cl)cc2)n1C(C)C
< 7.00

Let us now turn to O=C(c1ccc(F)c(F)c1Nc1ccc(I)cc1F)N1CC(O)([C@@H]2CCCCN2)C1 + CNC(C)C(=O)NC1CN(S(=O)(=O)c2cccc(S(=O)(=O)N3CCC4CCC(C(=O)NC(c5ccccc5)c5ccccc5)N4C(=O)C(NC(=O)C(C)NC)C3)c2)CCC2CCC(C(=O)NC(c3ccccc3)c3ccccc3)N2C1=O
7.09

Let us now turn to CCN1CCN(Cc2ccc(Nc3ncc(F)c(-c4cc(F)c5nc(C)n(C(C)C)c5c4)n3)nc2)CC1 + CNC(C)C(=O)NC1CN(S(=O)(=O)c2cccc(S(=O)(=O)N3CCC4CCC(C(=O)NC(c5ccccc5)c5ccccc5)N4C(=O)C(NC(=O)C(C)NC)C3)c2)CCC2CCC(C(=O)NC(c3ccccc3)c3ccccc3)N2C1=O
< 6.00

Let us now turn to CCN1CCN(Cc2ccc(Nc3ncc(F)c(-c4cc(F)c5nc(C)n(C(C)C)c5c4)n3)nc2)CC1 + Cc1c(S(C)(=O)=O)c(-c2cc(F)cc(N3CCN(c4ccc(NS(=O)(=O)c5ccc(NC(CCN6CCC(C(=O)OCCCP(=O)(O)O)CC6)CSc6ccccc6)c(S(=O)(=O)C(F)(F)F)c5)cc4)CC3)c2)c(-c2ccc(Cl)cc2)n1C(C)C
< 6.00

* * *

System: 323965-272-R-J2-PDC complex spheroid growth, % test/control
EXPERIMENT: Anticancer human tumor 323965-272-R-J2-PDC cell line growth inhibition [Asc];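 note: compound exposure lasted 7 days starting three days after spheroid seeding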;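 for viability, T/C: 100% = DMSO vehicle control wells with viability set relative to vehicle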
MEASUREMENT_CONDITIONS: second compound 0.0949 µM; first compound 0.00316 µM; stronger effect = lower value
Give viability, T/C for every item shown.
Answer format: numeric, % implied, no suffix.

Please give the measured viability, T/C for this compound: CNC(C)C(=O)NC1CN(S(=O)(=O)c2cccc(S(=O)(=O)N3CCC4CCC(C(=O)NC(c5ccccc5)c5ccccc5)N4C(=O)C(NC(=O)C(C)NC)C3)c2)CCC2CCC(C(=O)NC(c3ccccc3)c3ccccc3)N2C1=O (stereo not drawn) + CCN1C(C(=O)NC23CCC(C(=O)O)(CC2)CC3)C(c2cccc(Cl)c2F)C2(C(=O)Nc3cc(Cl)ccc32)C12CCCCC2
118

Let us now turn to CCN1CCN(Cc2ccc(Nc3ncc(F)c(-c4cc(F)c5nc(C)n(C(C)C)c5c4)n3)nc2)CC1 + CCN1C(C(=O)NC23CCC(C(=O)O)(CC2)CC3)C(c2cccc(Cl)c2F)C2(C(=O)Nc3cc(Cl)ccc32)C12CCCCC2
118

Let us now turn to COc1c(OCCCN2CCOCC2)ccc2c3n(c(=NC(=O)c4cnc(N)nc4)nc12)CCN3 + CCN1C(C(=O)NC23CCC(C(=O)O)(CC2)CC3)C(c2cccc(Cl)c2F)C2(C(=O)Nc3cc(Cl)ccc32)C12CCCCC2
97
